Reference source for all entries: the supplement of paper PMC6757056

B1: library; a variant is named by its letters at N, in order (parent)
chain: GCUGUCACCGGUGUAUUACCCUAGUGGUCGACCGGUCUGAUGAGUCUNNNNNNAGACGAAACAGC

- Variants of: B1
- Experimental details: normalized RNA/DNA level without ligand (relative to sTRSVctl = 100) (log10 (% of sTRSVctl)); ligand: hypoxanthine (xanthine aptamer); higher = less ribozyme self-cleavage, higher mRNA level
- Condition context: HEK293T, reporter: mCherry (pCS4076), ligand present: no
# normalized RNA/DNA level without ligand (log10) values compiled below
Readout kind: normalized RNA/DNA level without ligand (log10)

mutant_name=GUGUCA readout_value=1.77
mutant_name=UUCGCC readout_value=1.86
mutant_name=CGUGUC readout_value=1.94
mutant_name=UGCGAG readout_value=1.66
mutant_name=GGCCAG readout_value=1.67
mutant_name=AUACAC readout_value=1.76
mutant_name=GGUUGA readout_value=1.64
mutant_name=GGUACA readout_value=1.8
mutant_name=AUUCCC readout_value=1.87
mutant_name=CAACGG readout_value=1.42
mutant_name=GUACGU readout_value=1.78
mutant_name=AGCGAG readout_value=1.36
mutant_name=CCAACU readout_value=1.95
mutant_name=AGAUUG readout_value=1.47
mutant_name=GCCACU readout_value=1.97
mutant_name=CGAGAG readout_value=1.71
mutant_name=UGUGUA readout_value=1.79
mutant_name=AAUUGC readout_value=1.82
mutant_name=UAAUAG readout_value=1.63
mutant_name=GGUGCG readout_value=1.58
mutant_name=CGAUGA readout_value=1.79
mutant_name=CACUCC readout_value=1.92
